# Tested on: SK-OV-3
# MEASUREMENT_DESCRIPTION: NCI tumour cell line growth inhibition, 48 h
Activity calls are given as the source filed them. Cut-off read from the data, not from the text of the source: active = GI50 up to about 1.1 µM and inactive = higher.
Select the matching outcome among active, inactive

Exercise: Could you check what this test reported for COC(=O)CCCC1(CCCC(=O)OC)CCCCCCCCC(CCCC(=O)OC)(CCCC(=O)OC)C(=O)C1=O ?
Solution: inactive

Exercise: Could you check what this test reported for Cc1nc2cc(/N=N/c3c(C)noc3C)ccc2[nH]1 ?
Solution: inactive

Exercise: Could you check what this test reported for Cc1ccc(/C=N/NS(=O)(=O)c2ccccc2)c(C)c1 ?
Solution: inactive

Exercise: Could you check what this test reported for CCOC(=O)/C(C(N)=O)=C(O)/C(O)=C(\Br)C(=O)c1ccccc1 ?
Solution: inactive

Exercise: Could you check what this test reported for COC(=O)C(=O)C(C(=O)C(=O)Nc1ccc(C)cc1)c1nc2ccc(C(=O)c3ccccc3)cc2nc1O (centres undefined) ?
Solution: inactive

Exercise: Could you check what this test reported for Nc1ccc(-c2nc3ccccc3s2)cc1 ?
Solution: inactive

Exercise: Could you check what this test reported for Cc1cn(Cc2ccccc2CCO)c(=S)[nH]c1=O ?
Solution: inactive

Exercise: Could you check what this test reported for Cc1cccc(C)c1NC(=O)CCc1nnc(S)[nH]1 ?
Solution: inactive

Exercise: Could you check what this test reported for COC(=O)c1c(CC(=O)OC(C)C)cc2n(c1=O)Cc1c-2nc2ccccc2c1OC ?
Solution: inactive

Exercise: Could you check what this test reported for CC(=O)OCC1OC(N2C(=O)C(=O)c3cc(C)ccc32)C(OC(C)=O)C(OC(C)=O)C1OC(C)=O (centres undefined) ?
Solution: inactive

Exercise: Could you check what this test reported for CN(C)c1ccc(C(c2ccc(Cl)cc2)c2ccc(N(C)C)cc2)cc1 ?
Solution: inactive

Exercise: Could you check what this test reported for COC(=O)C(CC(=O)c1cc2c(cc1I)OCO2)Cc1cc(OC)c(OC)c(OC)c1I (centres undefined) ?
Solution: inactive

Exercise: Could you check what this test reported for Cc1ccc(NC(=O)CCc2nnc3s/c(=C\C=C\c4ccccc4)c(=O)n23)cc1 ?
Solution: inactive

Exercise: Could you check what this test reported for COc1cc(C2C(Cl)C(=O)N2NC(=O)c2ccc(NC(C)=O)cc2)cc(Br)c1O (centres undefined) ?
Solution: inactive

Exercise: Could you check what this test reported for O=C(Oc1ccc(C(c2c(O)c3ccccc3oc2=O)c2c(O)c3ccccc3oc2=O)cc1)c1ccc(C(=O)c2ccccc2)cc1 ?
Solution: inactive

Exercise: Could you check what this test reported for O=C1/C(=C/c2cccc(Oc3ccccc3)c2)N=C(c2ccccc2)N1c1nc2ccc(Sc3ccccc3)cc2[nH]1 ?
Solution: inactive

Exercise: Could you check what this test reported for CCOC(=O)N1CCN(C=S)CC1 ?
Solution: inactive

Exercise: Could you check what this test reported for CSc1nncc2[nH]c(C)nc12 ?
Solution: inactive

Exercise: Could you check what this test reported for CC1SC2(CCCCC2)N(NC(=O)CSc2nc3ccc(Cl)cc3c(=O)n2-c2ccccc2)C1=O (centres undefined) ?
Solution: inactive

Exercise: Could you check what this test reported for O=C(O)CSC1=NCCN1 ?
Solution: inactive

Exercise: Could you check what this test reported for COC(=O)c1ccc(NCc2cc(O)ccc2O)cc1O ?
Solution: inactive

Exercise: Could you check what this test reported for O=c1cc(N2CCOCC2)[nH]c(=O)n1-c1ccc(F)cc1 ?
Solution: inactive

Exercise: Could you check what this test reported for CSc1c(C#N)c(=O)n(N)c2[nH]nc(C)c12 ?
Solution: inactive

Exercise: Could you check what this test reported for c1ccc2c(c1)[nH]c1c2cc[n+]2cc3c(cc12)CCCC3 ?
Solution: inactive

Exercise: Could you check what this test reported for COc1ccc(C23OCC(Cc4cc(OC)c(OC)cc42)C3CO)cc1OC (centres undefined) ?
Solution: inactive

Exercise: Could you check what this test reported for Cn1c(NNc2ccccc2)cc(=O)[nH]c1=O ?
Solution: inactive

Exercise: Could you check what this test reported for COc1ccc(-c2c3c(n(C4OC(COC(C)=O)C(OC(C)=O)C(OC(C)=O)C4OC(C)=O)c(=S)c2C#N)CC(C)(C)CC3=O)cc1 (centres undefined) ?
Solution: inactive

Exercise: Could you check what this test reported for C=CCN1C(=O)/C(=C/c2ccco2)N=C1SC1OC(COC(C)=O)C(OC(C)=O)C(OC(C)=O)C1OC(C)=O (centres undefined) ?
Solution: inactive

Exercise: Could you check what this test reported for CC12c3ccccc3C(OC=O)(c3ccccc31)C1(C)c3ccccc3C2(OC=O)c2ccccc21 ?
Solution: inactive

Exercise: Could you check what this test reported for Cc1ccc(Nc2ncnc3sc(SCc4ccccc4)nc23)cc1 ?
Solution: inactive

Exercise: Could you check what this test reported for Cc1ccc2nc(-c3ccc(-c4nc5ccc(C)cc5o4)c(O)c3)oc2c1 ?
Solution: inactive

Exercise: Could you check what this test reported for CO[C@@H]1/C=C\C=C(/C)C(=O)NC2=CC(=O)C(NCCN(C)C)=C(C[C@@H](C)C[C@@H](OC)[C@@H](O)[C@H](C)/C=C(\C)[C@H]1OC(N)=O)C2=O ?
Solution: active

Exercise: Could you check what this test reported for COc1ccc(C2[C@H]3C(=O)N(c4ccc(Cc5ccc(N6C(=O)[C@@H]7ON(c8ccccc8)C(c8ccc(OC)cc8)[C@@H]7C6=O)cc5)cc4)C(=O)[C@H]3ON2c2ccccc2)cc1 (some centres undefined) ?
Solution: inactive

Exercise: Could you check what this test reported for CCOC(=O)NNC(=O)NCc1ccccc1CNC(=O)NNC(=O)OCC ?
Solution: inactive

Exercise: Could you check what this test reported for CNC(=O)N(CCC#N)CCN(C(=O)NC)c1ccccc1 ?
Solution: inactive

Exercise: Could you check what this test reported for CCOC(=O)C(Cc1ccc([N+](=O)[O-])cc1)NC(=O)CC1c2ccccc2-c2ccccc21 (centres undefined) ?
Solution: inactive

Exercise: Could you check what this test reported for CN(C)C(=O)OC(Cn1cncn1)(Cn1cncn1)c1ccc(Cl)cc1Cl ?
Solution: inactive

Exercise: Could you check what this test reported for COc1ccc(C2C3=C(N=C4SC(C(C)=O)=C(C)N42)c2ccccc2CC3)cc1 (centres undefined) ?
Solution: inactive

Exercise: Could you check what this test reported for O=c1c2cccnc2[nH]c2ccc3cn[nH]c3c12 ?
Solution: inactive
